experiment: Spectrophotometric pH titration, experimental determination of pKa; assay type: physicochemical; conditions: water titrated with 0.05 M NaOH, extrapolated from absorbance intensity at 430 and 360 nm as a function of pH
Value type: pKa

NC(CC(=O)c1cccc2oc3cc(=O)c4[nH]c(C(=O)O)cc(=O)c4c-3nc12)C(=O)O (stereo not shown) [Xa, xanthommatin]: 5.5
